Sourced from PubChem BioAssay (NCI)

Each entry below carries its reported growth.
Test system: SF-295 CNS
Experiment: NCI-60 one-dose screen, 48 h (100 = growth as untreated, 0 = no growth, -100 = all killed)
Conditions: 10 µM unless noted
Compounds without any hit were thinned out: in the full panel of roughly 83,000, 20% have a hit.
# output: bare number, implied unit %

Observe how each entry below is paired with its result.
>>> experimental_result("CCCCCCCC/C=C/CCCCCCCC1=NCC[N+]1(CCO)CCO")
79.6
>>> experimental_result("COc1ccc(/C(C)=C(\\c2ccc(Cl)cc2)c2ccc(OCCN3CCCCC3)cc2)cc1F")
-19.7

Ask: Name the reported growth value associated with the molecule O=C(NC1CCOCC1)c1ccc2c(c1)CN(c1ncc(Cc3cccc(-n4cccn4)c3)s1)CC2
Reply: 62.5

Ask: What do you get for C[C@@H]1CC[C@@H]2[C@@H]1[C@H](OC(=O)c1ccc3ccccc3c1)[C@]1(C3CCCCC3)C[C@@H](OC(=O)CO)[C@@]2(C)O1 ?
Reply: 68.2

Ask: Ok, now CN1CCC(=C2c3ccccc3C=Cc3ccccc32)CC1
Reply: 88.1

Ask: Continue with COc1cc(-c2ccc(N=Nc3c(O)c(C(=O)Nc4ccccc4OC)cc4ccccc34)c(OC)c2)ccc1N=Nc1c(O)c(C(=O)Nc2ccccc2OC)cc2ccccc12
Reply: 95.1

Ask: Same question for CCn1c(Sc2nnc(NC(C)=O)s2)nc2c1c(=O)n(C)c(=O)n2C please.
Reply: 98

Ask: Now consider CC(C)(C)N1CC(OC(N)=O)C1 .
Reply: 113

Ask: Same again, this time with NC(N)=N/N=C(/c1ccccc1)c1ccccc1F
Reply: 11.8
